assay: Volume of distribution at steady state in CD-IGS rat at 2 mg/kg, iv administered as bolus dose; format: ADME, organism-based; conditions: in vivo, read-out: Vdss

| MOLECULE | UNIT_DESCRIPTOR | Vd |
| --- | --- | --- |
| O=C1CCC(N2Cc3cc(CNC(=O)C(F)(F)c4ccc(Cl)cc4)ccc3C2=O)C(=O)N1 (stereo unspecified) | L/kg | 2.2 |

====

experiment: MRT in cynomolgus monkey at 1 mg/kg, iv administered as bolus dose; assay type: ADME, organism-based, Macaca fascicularis; conditions: in vivo
MEASUREMENT_TYPE: MRT (h)

| COMPOUND | NUMERIC_VALUE |
| --- | --- |
| O=C1CCC(N2Cc3cc(CNC(=O)C(F)(F)c4ccc(Cl)cc4)ccc3C2=O)C(=O)N1 (stereo unspecified) | 4 |
